Collected pIC50 values appear next to each entry.
Molecular target: human TLR7 (Homo sapiens, UniProt Q9NYK1)
Sequence (Q9NYK1 27-1049): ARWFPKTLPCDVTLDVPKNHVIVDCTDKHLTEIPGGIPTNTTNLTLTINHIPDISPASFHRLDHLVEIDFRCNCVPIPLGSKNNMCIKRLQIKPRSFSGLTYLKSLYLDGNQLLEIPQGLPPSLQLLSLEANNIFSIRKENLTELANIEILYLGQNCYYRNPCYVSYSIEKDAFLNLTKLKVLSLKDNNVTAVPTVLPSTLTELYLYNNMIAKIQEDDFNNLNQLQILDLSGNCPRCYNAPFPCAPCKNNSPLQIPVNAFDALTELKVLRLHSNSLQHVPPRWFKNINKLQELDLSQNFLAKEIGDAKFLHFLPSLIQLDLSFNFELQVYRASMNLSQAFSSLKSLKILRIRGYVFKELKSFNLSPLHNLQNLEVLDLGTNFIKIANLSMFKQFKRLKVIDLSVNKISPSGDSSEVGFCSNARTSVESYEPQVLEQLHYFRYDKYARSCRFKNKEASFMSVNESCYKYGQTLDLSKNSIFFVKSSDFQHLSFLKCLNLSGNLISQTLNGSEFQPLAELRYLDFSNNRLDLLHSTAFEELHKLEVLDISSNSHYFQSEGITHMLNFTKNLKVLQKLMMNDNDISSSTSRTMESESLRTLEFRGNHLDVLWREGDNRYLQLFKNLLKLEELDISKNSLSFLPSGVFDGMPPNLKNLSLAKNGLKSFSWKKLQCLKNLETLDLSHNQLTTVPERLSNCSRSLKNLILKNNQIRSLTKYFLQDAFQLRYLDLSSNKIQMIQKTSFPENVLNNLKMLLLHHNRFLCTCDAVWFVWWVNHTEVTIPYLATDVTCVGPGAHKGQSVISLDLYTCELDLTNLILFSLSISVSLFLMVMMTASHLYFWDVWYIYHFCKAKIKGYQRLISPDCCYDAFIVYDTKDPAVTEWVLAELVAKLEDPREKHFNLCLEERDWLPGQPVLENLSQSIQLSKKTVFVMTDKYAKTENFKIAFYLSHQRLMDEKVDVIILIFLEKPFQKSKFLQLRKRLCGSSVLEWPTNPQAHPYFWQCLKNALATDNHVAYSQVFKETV
Test: HEK293-Blue-hTLR-7 cells assay (SEAP reporter, R848 stimulation)
Settings: HEK293-Blue-hTLR7 cells, R848, 20 hrs; read-out: HEK/hTLR7 IC50
pIC50: −log10 of the molar value.
readoutName: pIC50

> print(dat)
                                  cpdsmiles  measured
1  CO[C@@H]1CN(c2cc(C)nc(N3CCN(C[C@H]4CN(c5ccc(C#N)c6nccnc56)C[C@@H](C)O4)CC3)n2)C[C@@H]1N      8.30
2  CO[C@@H]1CN(c2ccc(C3CN(C[C@H]4CN(c5ccc(C#N)n6ncc(F)c56)C[C@@H](C)O4)C3)cn2)C[C@H]1N      8.00
3  C[C@@H]1CN(c2ccc(C#N)c3ncccc23)C[C@H](CN2CCC(C#N)(c3ccc(N4CCNCC4)cc3)CC2)O1      7.64
4  [2H]c1ccc2c(N3C[C@H](CN4CCN(c5ncc(N6C[C@@H](N)[C@H](OC)C6)cc5C)CC4)O[C@H](C)C3)ccc(C#N)c2n1      7.70
5  Cc1cc(N2CCN(C[C@H]3CN(c4ccc(C#N)c5ncccc45)C[C@@H](C)O3)CC2)nc(N[C@@H]2CNC[C@@H]2F)n1      7.35
6  Cc1cc(N2CC(N)C2)nc(N2CCN(C[C@H]3CN(c4ccc(C#N)c5nccnc45)C[C@@H](C)O3)CC2)n1      8.52

The origin of these recorded values is patent US20210395239A1.
